Reference for the values: patent US11208386B2

Measurement Target: PAD1 (Homo sapiens, UniProt Q9ULC6)
Construct: made in house
Sequence (Q9ULC6 whole entry): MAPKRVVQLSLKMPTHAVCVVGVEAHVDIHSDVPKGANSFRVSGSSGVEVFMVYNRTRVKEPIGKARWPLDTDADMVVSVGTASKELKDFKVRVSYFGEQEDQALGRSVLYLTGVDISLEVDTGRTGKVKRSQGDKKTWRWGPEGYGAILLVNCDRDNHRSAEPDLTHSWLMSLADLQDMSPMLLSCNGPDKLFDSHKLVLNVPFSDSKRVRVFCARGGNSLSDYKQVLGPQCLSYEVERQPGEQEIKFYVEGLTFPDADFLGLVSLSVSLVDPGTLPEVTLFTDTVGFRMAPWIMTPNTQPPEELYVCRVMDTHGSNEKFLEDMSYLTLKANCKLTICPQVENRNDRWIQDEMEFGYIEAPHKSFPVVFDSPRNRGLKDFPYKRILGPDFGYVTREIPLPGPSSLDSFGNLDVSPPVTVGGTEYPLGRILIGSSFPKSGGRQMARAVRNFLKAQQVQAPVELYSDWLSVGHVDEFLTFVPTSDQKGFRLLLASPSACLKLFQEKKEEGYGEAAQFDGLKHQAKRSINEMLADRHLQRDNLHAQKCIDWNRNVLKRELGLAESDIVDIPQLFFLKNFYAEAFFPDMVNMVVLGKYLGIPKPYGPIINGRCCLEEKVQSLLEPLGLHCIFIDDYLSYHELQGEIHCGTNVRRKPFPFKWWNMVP
Procedure Summary: Inactivation kinetics, PAD1
Type: biochemical
Condition Details: a: single kobs determined; b: from a linear fit
Each entry below carries its reported kinact/KI.
// units = M⁻¹ s⁻¹; emit number, no label

These solved cases illustrate the format of a correct answer.
COc1cccc2[nH]c([C@H](CCCNC(=N)CF)NC(=O)c3cccc4c3C(=O)NC4)nc12    1530
CCn1c([C@H](CCCNC(=N)CCl)NC(=O)c2cccc3c2C(=O)NC3)nc2cc(OC)ccc21    1010
CCOc1cccc2c1nc([C@H](CCCNC(=N)CCl)NC(=O)c1cccc3c1C(=O)NC3)n2C    982
CCN1Cc2cccc(C(=O)N[C@@H](CCCNC(=N)CF)c3nc4c(OC)cccc4n3C)c2C1=O    1180

IN: Hello, I am looking for reported kinact/KI with PAD1 (Homo sapiens, UniProt Q9ULC6) for `N=C(CCl)NCCC[C@H](NC(=O)c1ccccc1C(=O)O)c1nc2ccccc2[nH]1` . Could you help?
OUT: 475

IN: Test system PAD1 (Homo sapiens, UniProt Q9ULC6); read-out kinact/KI; what value for `N=C(CCl)NCCC[C@H](NC(=O)c1ccc(-c2ccc(F)cc2)cc1)c1nc2ccccc2[nH]1` ?
OUT: 343

* * *

Measurement Target: PAD2 (Homo sapiens, UniProt Q9Y2J8)
Construct: made in house
Sequence (Q9Y2J8 whole entry): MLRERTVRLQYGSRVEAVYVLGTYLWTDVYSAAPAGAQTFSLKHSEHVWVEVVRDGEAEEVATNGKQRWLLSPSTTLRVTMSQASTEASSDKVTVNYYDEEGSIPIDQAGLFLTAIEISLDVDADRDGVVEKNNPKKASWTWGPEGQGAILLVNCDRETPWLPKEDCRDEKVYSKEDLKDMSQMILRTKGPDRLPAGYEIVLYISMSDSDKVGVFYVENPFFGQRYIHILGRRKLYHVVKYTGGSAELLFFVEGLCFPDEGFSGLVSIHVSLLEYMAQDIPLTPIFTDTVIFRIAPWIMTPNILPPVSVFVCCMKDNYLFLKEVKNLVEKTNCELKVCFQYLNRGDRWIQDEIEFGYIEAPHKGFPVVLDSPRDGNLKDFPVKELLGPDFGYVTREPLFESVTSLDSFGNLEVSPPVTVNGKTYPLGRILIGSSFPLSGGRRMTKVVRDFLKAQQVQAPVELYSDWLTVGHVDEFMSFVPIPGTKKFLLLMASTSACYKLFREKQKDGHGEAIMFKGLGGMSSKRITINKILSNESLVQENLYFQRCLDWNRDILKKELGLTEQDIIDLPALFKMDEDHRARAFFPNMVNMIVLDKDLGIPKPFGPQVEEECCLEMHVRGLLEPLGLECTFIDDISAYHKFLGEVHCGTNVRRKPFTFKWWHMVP
Procedure Summary: Inactivation kinetics, PAD2
Format: biochemical
Condition Details: kinact/KI relative to least inhibited isozyme (1.0)
Procedure: Inactivation kinetic parameters were determined by incubating PAD1, 2, or 4 (2.0 μM) or PAD3 (5.0 μM) in a pre-warmed (10 min; 37° C.) inactivation mixture (50 mM HEPES, 10 mM CaCl2, and 2 mM DTT, pH 7.6, with a final volume of 60 μL) containing various concentrations of inhibitor. […] After 15 min, reactions were quenched in liquid nitrogen and citrulline production quantified using the COLDER assay. […]
Assay Endpoint: Fold PAD2 Selectivity (fold)
Output spec: scalar in fold, unitless text.

Answered examples (5):
C#Cc1ccc(-c2ccc(C(=O)N[C@@H](CCCNC(=N)CCl)c3nc4ccccc4[nH]3)cc2)cc1    2.3
Cn1c([C@H](CCCNC(=N)CF)NC(=O)c2ccccc2C(=O)O)nc2ccccc21    15
CCN1Cc2cccc(C(=O)N[C@@H](CCCNC(=N)CCl)c3nc4cc(OC)ccc4n3C)c2C1=O    32
CCn1c([C@H](CCCNC(=N)CF)NC(=O)c2cccc3c2C(=O)NC3)nc2cc(OC)ccc21    50
CCN1Cc2cccc(C(=O)N[C@@H](CCCNC(=N)CF)c3nc4c(OC)cccc4n3CC)c2C1=O    40

IN: Query Fold PAD2 Selectivity on PAD2 (Homo sapiens, UniProt Q9Y2J8) for `Cn1c([C@H](CCCNC(=N)CCl)NC(=O)c2cccc3c2C(=O)NC3)nc2ccccc21`
OUT: 3.1

IN: Field: Fold PAD2 Selectivity (PAD2 (Homo sapiens, UniProt Q9Y2J8)). Entry: `CCN1Cc2cccc(C(=O)N[C@@H](CCCNC(=N)CF)c3nc4ccccc4n3CC)c2C1=O`
OUT: 33

IN: Short answer please: Fold PAD2 Selectivity, PAD2 (Homo sapiens, UniProt Q9Y2J8), entry `N=C(CF)NCCC[C@H](NC(=O)c1ccc(-c2ccc(F)cc2)cc1)c1nc2cc(F)c(F)cc2[nH]1`
OUT: 1.3

IN: Missing value: Fold PAD2 Selectivity, PAD2 (Homo sapiens, UniProt Q9Y2J8), entry `CCN1Cc2cccc(C(=O)N[C@@H](CCCNC(=N)CF)c3nc4c(OC)cccc4n3C)c2C1=O` . Fill in?
OUT: 85

IN: Param readout= Fold PAD2 Selectivity; system= PAD2 (Homo sapiens, UniProt Q9Y2J8); entry= `COc1cccc2c1nc([C@H](CCCNC(=N)CF)NC(=O)c1ccc(-c3ccccc3)cc1)n2C` ; returns value.
OUT: 10

IN: Find the measured Fold PAD2 Selectivity: item `N=C(CCl)NCCC[C@H](NC(=O)c1ccc(-c2ccc(F)cc2)cc1)c1nc2cc(F)c(F)cc2[nH]1` , target or system PAD2 (Homo sapiens, UniProt Q9Y2J8).
OUT: 1.0

IN: Recorded Fold PAD2 Selectivity for `COc1cccc2c1nc([C@H](CCCNC(=N)CF)NC(=O)c1cccc3c1C(=O)NC3)n2C` with PAD2 (Homo sapiens, UniProt Q9Y2J8), please?
OUT: 47

IN: Please provide the recorded Fold PAD2 Selectivity for `CCN1Cc2cccc(C(=O)N[C@@H](CCCNC(=N)CF)c3nc4ccccc4[nH]3)c2C1=O` , tested on PAD2 (Homo sapiens, UniProt Q9Y2J8).
OUT: 1.0

IN: # value lookup — system PAD2 (Homo sapiens, UniProt Q9Y2J8), readout Fold PAD2 Selectivity, item `N=C(CF)NCCC[C@H](NC(=O)c1ccccc1)c1nc2ccccc2[nH]1`
OUT: 1.0

IN: API: value(readout=Fold PAD2 Selectivity, system=PAD2 (Homo sapiens, UniProt Q9Y2J8)) for record `CCn1c([C@H](CCCNC(=N)CF)NC(=O)c2ccccc2C(=O)O)nc2ccccc21`
OUT: 31

IN: Report Fold PAD2 Selectivity for `CCOc1cccc2c1nc([C@H](CCCNC(=N)CF)NC(=O)c1cccc3c1C(=O)NC3)n2C` tested on PAD2 (Homo sapiens, UniProt Q9Y2J8).
OUT: 95

IN: Checklist item: Fold PAD2 Selectivity tested on PAD2 (Homo sapiens, UniProt Q9Y2J8), entry `CCn1c([C@H](CCCNC(=N)CF)NC(=O)c2cccc3c2C(=O)NC3)nc2c(OC)cccc21` , value?
OUT: 32

IN: Lab note: need Fold PAD2 Selectivity with PAD2 (Homo sapiens, UniProt Q9Y2J8) for entry `COc1cccc2c1nc([C@H](CCCNC(=N)CCl)NC(=O)c1cccc3c1C(=O)N(C)C3)n2C` , please look it up.
OUT: 11

IN: Give Fold PAD2 Selectivity (PAD2 (Homo sapiens, UniProt Q9Y2J8)) of the following compound: `CCN1Cc2cccc(C(=O)N[C@@H](CCCNC(=N)CF)c3nc4cc(OC)ccc4[nH]3)c2C1=O`
OUT: 6.3

IN: # value lookup — system PAD2 (Homo sapiens, UniProt Q9Y2J8), readout Fold PAD2 Selectivity, item `CCn1c([C@H](CCCNC(=N)CCl)NC(=O)c2ccccc2C(=O)OC(C)(C)C)nc2ccccc21`
OUT: 7.0

IN: Item `CCn1c([C@H](CCCNC(=N)CCl)NC(=O)c2ccc(-c3ccccc3)cc2)nc2ccccc21` with PAD2 (Homo sapiens, UniProt Q9Y2J8) - Fold PAD2 Selectivity?
OUT: 1.2

* * *

Measurement Target: PAD2 (Homo sapiens, UniProt Q9Y2J8)
Construct: made in house
Procedure Summary: Inactivation kinetics, PAD2
Format: biochemical
Condition Details: kinact/KI relative to least inhibited isozyme (1.0)
Each entry below carries its reported Fold PAD2 Selectivity.
Your answer is read as fold, so omit the unit and give the number.

Cn1c([C@H](CCCNC(=N)CCl)NC(=O)c2ccc(-c3ccccc3)cc2)nc2ccccc21 [Compound 5h]    1.0

Next compound, please.
IN: Entry COc1ccc2[nH]c([C@H](CCCNC(=N)CCl)NC(=O)c3cccc4c3C(=O)NC4)nc2c1 [Compound 7t] : reported Fold PAD2 Selectivity = ?
OUT: 3.5

* * *

Measurement Target: PAD3 (Homo sapiens, UniProt Q9ULW8)
Construct: made in house
Sequence (Q9ULW8 1-664): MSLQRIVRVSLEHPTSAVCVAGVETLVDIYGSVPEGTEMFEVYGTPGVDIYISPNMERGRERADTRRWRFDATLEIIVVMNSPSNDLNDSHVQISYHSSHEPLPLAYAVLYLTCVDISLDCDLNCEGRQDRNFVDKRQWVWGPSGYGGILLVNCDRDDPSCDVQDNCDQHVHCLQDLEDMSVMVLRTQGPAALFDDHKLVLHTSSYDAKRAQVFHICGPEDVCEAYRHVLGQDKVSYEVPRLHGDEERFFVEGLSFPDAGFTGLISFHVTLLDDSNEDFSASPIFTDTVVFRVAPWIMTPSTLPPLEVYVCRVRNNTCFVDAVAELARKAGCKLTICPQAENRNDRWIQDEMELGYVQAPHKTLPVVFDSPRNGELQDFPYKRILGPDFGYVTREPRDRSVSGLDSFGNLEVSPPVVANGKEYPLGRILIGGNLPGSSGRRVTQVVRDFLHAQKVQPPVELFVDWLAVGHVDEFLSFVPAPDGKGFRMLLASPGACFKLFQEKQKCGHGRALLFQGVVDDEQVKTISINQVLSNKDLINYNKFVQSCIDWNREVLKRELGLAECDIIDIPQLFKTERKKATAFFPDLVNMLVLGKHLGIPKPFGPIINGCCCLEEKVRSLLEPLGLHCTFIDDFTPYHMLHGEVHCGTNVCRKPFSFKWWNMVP
Procedure Summary: Inactivation kinetics, PAD3
Format: biochemical
Condition Details: a: single kobs determined
Threshold check on kinact/KI: at or above 100 M⁻¹ s⁻¹ gives yes, strictly below gives no.

Reference set, count: 8
Cn1c([C@H](CCCNC(=N)CCl)NC(=O)c2cccc3c2C(=O)NC3)nc2ccccc21    yes
COc1ccc2c(c1)nc([C@H](CCCNC(=N)CF)NC(=O)c1cccc3c1C(=O)NC3)n2C    no
N=C(CCl)NCCC[C@H](NC(=O)c1ccccc1C(=O)O)c1nc2ccccc2[nH]1    yes
CCN1Cc2cccc(C(=O)N[C@@H](CCCNC(=N)CF)c3nc4c(OC)cccc4n3C)c2C1=O    no
CCN1Cc2cccc(C(=O)N[C@@H](CCCNC(=N)CF)c3nc4ccccc4[nH]3)c2C1=O    yes
N=C(CF)NCCC[C@H](NC(=O)c1ccc(-c2ccc(F)cc2)cc1)c1nc2ccccc2[nH]1    no
CC(C)n1c([C@H](CCCNC(=N)CCl)NC(=O)c2ccccc2C(=O)O)nc2ccccc21    no
COc1cccc2c1nc([C@H](CCCNC(=N)CCl)NC(=O)c1cccc3c1C(=O)NC3)n2C    yes

Consider now this further compound.
IN: Is reported kinact/KI greater than or equal to 100 M⁻¹ s⁻¹ here: `N=C(CF)NCCC[C@H](NC(=O)c1ccc(-c2ccc(F)cc2)cc1)c1nc2cc(F)c(F)cc2[nH]1`
OUT: no
